Structures can show the parent of a compound that is named as a salt.
Assay Endpoint: melting point (°C)

                                   molecule  assay_endpoint  measured
0  O=C(NC1CCC(c2cc(Nc3cccc(C(F)(F)F)c3)n[nH]2)C1)C1CCC1 (stereo not shown) (as salt: HCl) [Example 33]   melting point     232.4
1  CC(=O)N[C@H]1C[C@@H](c2cc(NC(=O)Cc3cccc4ccccc34)n[nH]2)C1 (as salt: HCl) [Example 48]   melting point     209.4
2  O=C(Cc1cccc2ccccc12)Nc1cc([C@H]2C[C@@H](NC(=O)C3CC3c3ccccc3)C2)[nH]n1 (stereo partly shown) (as salt: HCl) [Example 47]   melting point     139.8
3  COc1ccc(C(=O)N[C@H]2C[C@@H](c3cc(NC(=O)Cc4cccc5ccccc45)n[nH]3)C2)cc1 (as salt: HCl) [Example 54]   melting point     175.6
4  O=C(Cc1cccc2ccccc12)Nc1cc([C@H]2C[C@@H](NC(=O)CC3CC3)C2)[nH]n1 (as salt: HCl) [Example 50]   melting point      93.2
5  O=C(Cc1cccc2ccccc12)Nc1cc([C@H]2C[C@@H](NC(=O)c3ccccc3)C2)[nH]n1 (as salt: HCl) [Example 49]   melting point       194
6  O=C(Cc1cccc2ccccc12)Nc1cc([C@H]2C[C@@H](NC(=O)c3ccc4ccccc4n3)C2)[nH]n1 (as salt: HCl) [Example 52]   melting point     200.3

Data origin: patent US20020103185A1
